Measured solubility kinetic accompanies every entry in the list below.
- reportedConditions: buffer; pH 7.4; 200.0 µM
observable: solubility kinetic (µg/mL)

>>> df
                                    compound  unitofmeasure  sign  value
 0                   C=CCn1c(C)nc2ccccc2c1=O          µg/mL     >     30
 1  CC(OC(=O)c1cc2ccccc2[nH]1)C(=O)N(C)c1ccccc1 (stereo unspecified)          µg/mL     =    3.8
 2  O=C(Nc1cccc(Cl)c1Cl)C1CCCO1 (stereo unspecified)          µg/mL     =   26.7
 3     Cc1cc(Cl)ccc1-n1c(-c2cccnc2)n[nH]c1=S          µg/mL     >   45.4
 4      Cc1ccsc1CN1CC(=O)N(c2c(C)cccc2C)C1=S          µg/mL     =   12.2
 5  O=C1CC2(CCN(C(=O)c3ccc(F)c(F)c3)CC2)Oc2ccccc21          µg/mL     >   53.6
 6  CCc1ccc(S(=O)(=O)N2CCN(C(=O)c3cccnc3)CC2)cc1          µg/mL     >   53.9
 7     COc1nc(N)nc(N)c1NS(=O)(=O)c1ccc(C)cc1          µg/mL     >   46.4
 8        Oc1ccc(-c2cnc(-c3ccc(O)cc3)nc2)cc1          µg/mL     =    1.7
 9                        Cl.O=C(O)CN1CCCCC1          µg/mL     =   23.8
10        COC(=O)c1scc(C)c1NC(=O)/C=C/C(=O)O          µg/mL     =   38.8
11            O=C(Nc1ccc(F)c(Cl)c1)N1CCCCCC1          µg/mL     =    5.8
12  CC1CCCC(C)N1C(=O)COC(=O)c1cncc(Br)c1 (stereo unspecified)          µg/mL     >   53.3
13                   O=S(=O)(NC1CC1)c1ccccc1          µg/mL     =   28.3
14         C/C(=N\Nc1nc(C)cc(C)n1)c1ccc(C)o1          µg/mL     >   36.6
15         O=C1CCC(=O)N1CC(=O)N1CCCc2ccccc21          µg/mL     =   28.5
16          CCCCn1c(=O)cc(C)n(-c2ccccc2)c1=O          µg/mL     =   22.8
17        Cc1ccc(NS(=O)(=O)c2cccc3nsnc23)cc1          µg/mL     =     36
18          CC(=O)Nc1ccc(NC(=O)Nc2ccccc2)cc1          µg/mL     =    6.3
19             CN(C)CCNC(=S)Nc1ccc(F)c(F)c1F          µg/mL     >   41.6
20  Cc1cc(=O)oc2cc(OCC(=O)N3CCOCC3)c(Cl)cc12          µg/mL     >   50.7
21       Cc1ccc(NC(=S)NC(=O)Cc2ccccc2)c(O)c1          µg/mL     =    3.3
22      Cc1ccc(OCC(=O)NCCCNC(=O)c2ccco2)cc1C          µg/mL     >   49.6
23  Cc1ccnc(NS(=O)(=O)c2ccc(NS(C)(=O)=O)cc2)n1          µg/mL     =   47.8
24    CN(CC(=O)Nc1c(Cl)cccc1Cl)C(=O)Cc1ccsc1          µg/mL     >   53.6
25       CN1CCN(c2ccc(NC(=O)c3ccccc3)cc2)CC1          µg/mL     >   44.3

###

- reportedConditions: buffer; pH 7.4; 200.0 µM
Catalogue of solubility kinetic values
observable: solubility kinetic (µg/mL)

In [3]: df
Out[3]:
                                   compound  sign  value
0  Cc1[nH]c(=O)c(C#N)c(C)c1CCC(=O)NCc1ccc(Cl)cc1     >   51.6
1  CC(C)(C)N/C=C(\C#N)S(=O)(=O)c1ccc(Br)cc1     =    7.7
2  O=C(Nc1ccccc1C(=O)Nc1ccccn1)c1ccc([N+](=O)[O-])cc1     =    0.6
3  Cc1ccc(CN2CC(C(=O)N(C)CC(=O)Nc3cccc(F)c3)CC2=O)cc1 (stereo unspecified)     =   46.2
4      COc1ccc2nc(Nc3nc(-c4ccncc4)cs3)sc2c1     =    0.8
5        Cc1cc(C)c(S(=O)(=O)NCc2ccccn2)cc1C     >   43.6

###

- reportedConditions: buffer; pH 7.4; 200.0 µM
# solubility kinetic annotations
observable: solubility kinetic (µg/mL)

In [3]: df
Out[3]:
                                   compound  value
0    O=C(O)Cc1ccc(NC(=O)Nc2cccc3ccccc23)cc1   45.1
1        c1ccc(N2CCN(Cc3cn4ccccc4n3)CC2)cc1   40.8
2  CCC(OC(=O)c1ccco1)C(=O)NCc1ccc2c(c1)OCO2 (stereo unspecified)   46.5
3  Cn1cccc1C(=O)NC(=O)COC(=O)c1ccc(S(C)(=O)=O)cc1    8.7
4    O=c1sc2ccccc2c(N2CCOCC2)c1[N+](=O)[O-]   12.8
5  CCC(=O)Nc1ccc(-c2ccc(NC(=O)CC)c(OC)c2)cc1OC    7.1

###

- reportedConditions: buffer; pH 7.4; 200.0 µM
Class (by solubility kinetic) -- LOW (below 4 µg/mL), MID (4 µg/mL to below 30 µg/mL), HIGH (30 µg/mL or more)

>>> df
                                    compound  categorylabel
 0               Cc1cc(C)nc(NC(=O)c2cccs2)c1            MID
 1  O=c1oc2ccccc2c(Nc2ccc(F)cc2)c1[N+](=O)[O-]            MID
 2   COc1ccccc1NC(=O)c1c(C)nc2ccccc2c1C(=O)O           HIGH
 3         COc1ccc(NC(=O)COC(=O)C2CCC2)cc1Cl           HIGH
 4  COc1cc(/C=C/C(=O)OCC(=O)NCc2ccc3c(c2)OCO3)cc(OC)c1OC            MID
 5          C=CCc1cccc(CNc2c(C)cc(C)cc2C)c1O            MID
 6  Cc1c(-c2ccc(Br)cc2)[n+](=O)c2c(n1[O-])CCCCC2           HIGH
 7      COc1cc(N)c(Cl)cc1C(=O)OCC(=O)c1cccs1            MID
 8            CCCc1cc(C(=O)Nc2cc(C)ccc2O)no1            LOW
 9  CN(C)c1ccc(S(=O)(=O)N2CCCCC2)cc1NC(=O)C1=COCCO1            MID
10        CNC(=O)CSc1nc2cccnc2n1-c1ccc(F)cc1           HIGH
11  CC(=O)c1cc2c(cc1NC(=O)CN(C)S(=O)(=O)c1cccs1)OCO2            MID
12  Cn1c(N)c(C(=O)COC(=O)C2CCCN2C(=O)c2cccs2)c(=O)n(C)c1=O (centres undefined)           HIGH
13       Cc1ccc(-c2csc(NC(=O)c3ccco3)n2)cc1C            LOW
14      CCOC(=O)Cc1csc(NC(=O)Cc2ccc(C)cc2)n1           HIGH
15       Cc1nc(NC(=O)C2CC2)sc1C(=O)Nc1ccccc1            LOW
16  O=C1CSC(c2ccccn2)N1c1ccc(F)cc1F (centres undefined)           HIGH
17  CCN(CC)c1c([N+](=O)[O-])c(=O)n(C)c2ccccc12            MID
18              CCCOc1ccc(CN2CCOCC2)cc1OC.Cl           HIGH
19                     CCCCc1nc2cc(Cl)ccc2o1            LOW
20       COc1ccc(-c2csc(Nc3cc(C)ccn3)n2)cc1C            LOW
21    CC(=O)Nc1ccc2nc(NC(=O)CCc3ccccc3)sc2c1            LOW
22  Cc1ccc2nc(/C(C#N)=C/c3ccccc3C(=O)O)[nH]c2c1           HIGH
23  Cc1cc(O)c(CN(C)C)c2c1C(=O)/C(=C/c1ccco1)O2           HIGH
24            CCCCc1nnc(SCC(=O)NC2CCCCC2)n1C           HIGH
25  O=C(NCCCc1ccccc1)c1ccc([N+](=O)[O-])cc1Cl            MID
26     Cn1c(CC(=O)NNC(=O)c2cccnc2)nc2ccccc21           HIGH
27      COc1ccc(/C=C/C(=O)NC(=S)N2CCOCC2)cc1           HIGH
28  Cc1cccc(N2CCN(C(=O)c3ccccn3)CC2C)c1 (centres undefined)           HIGH
29  COc1ccc(C2CC(=O)N(c3ccccc3)C3=C2C(=O)CCC3)cc1 (centres undefined)           HIGH
30     O=[N+]([O-])c1ccc2nonc2c1Nc1cccc(F)c1            LOW
31            Oc1ccc(CN2CCN(c3ncccn3)CC2)cc1           HIGH
32  CC(=O)NC(c1ccc(C(C)C)cc1)c1ccc2cccnc2c1O (centres undefined)            LOW
33  COc1ccc(N2CCN(C(CNC(=O)C(=O)NCCCO)c3ccco3)CC2)cc1 (centres undefined)           HIGH
34              C=C(C)CNC(=S)NNC(=O)c1ccncc1           HIGH
35          COc1ccc2nc(NC(=O)c3ccccc3F)sc2c1            LOW
36       CCN1CCN(c2cc(C)nc(-c3ccccc3O)n2)CC1           HIGH
37      OC1(C#CCCN2CCCCC2)c2ccccc2-c2ccccc21           HIGH
38  CN(C)CC/C=C1/c2cc(F)ccc2Sc2ccc(Cl)cc21.Cl           HIGH
39  COCCN1C(=O)C(=O)/C(=C(/O)c2ccc(C)cc2)C1c1ccccn1 (centres undefined)           HIGH
40  COc1cccc(/C=C/C(=O)OCC(=O)Nc2ccc(Cl)cn2)c1            LOW
41       O=C(COC(=O)C1=COCCO1)NCc1ccc(Cl)cc1           HIGH
42  COc1ccc(/C=N/NC(=O)c2cc[n+]([O-])cc2)cc1OC           HIGH
43             CCn1c2ccccc2c2cc(C#N)c(N)nc21            LOW
44  O=C(Nc1ccccc1)c1ccccc1NC(=O)c1ccccc1C(=O)O           HIGH
45  NC1=NC(=O)C(Cc2ccccc2)S1 (centres undefined)           HIGH
46          Cc1ccc(NC(=O)CCC(=O)c2cccs2)cc1F            MID
47                  Cc1cccc(C(=S)N2CCOCC2)n1           HIGH
48   O=C(COC(=O)COc1ccccc1F)Nc1ccc2c(c1)OCO2           HIGH
